# Procedure Summary: Pharmacokinetic measurements in rats (intravenous and intra-tracheal dosing)
# Assay type: in vivo
# Experimental Parameters: rat, i.v. dosing, 24 h
Metric: BAL % administered dose at time (h)

Compound: COC(=O)c1cc2c(cc1C)/C(=C(/Nc1ccc(C(=O)NOCCN(C)C)c(C)c1)c1ccccc1)C(=O)N2
Result: 0.01%
//
Compound: COC(=O)c1cc2c(cc1C)/C(=C(/Nc1ccc(C(=O)NOCCN3CCN(C)CC3)cc1)c1ccccc1)C(=O)N2
Result: BQL
//
Compound: COC(=O)c1ccc2c(c1)NC(=O)/C2=C(\Nc1ccc(C(=O)NOCCN2CCN(C)CC2)cc1)c1ccccc1
Result: BLQ
//
Compound: COC(=O)c1ccc2c(c1)NC(=O)/C2=C(\Nc1ccc(S(=O)(=O)NOCCN(C)C)cc1)c1ccccc1
Result: 0.01%
//
Compound: COC(=O)c1ccc2c(c1)NC(=O)/C2=C(\Nc1ccc(N(C)C(=O)CN2CCN(C)CC2)cc1)c1ccccc1 [Nintedanib, reference compound]
Result: BQL
//
Compound: COC(=O)c1cc2c(cc1C)/C(=C(/Nc1ccc(C(=O)NOCCN3CCN(CCO)CC3)cc1)c1ccccc1)C(=O)N2
Result: BLQ
//
Compound: COC(=O)c1ccc2c(c1)NC(=O)/C2=C(\Nc1ccc(C(=O)NOCCN(C)C)cc1)c1ccccc1
Result: BLQ

---

# Test system: MRC5 cells
# Procedure Summary: Cell viability assay in MRC5 cells (MTT)
# Experimental Parameters: 1000 nM
Please assign Not satisfied whenever Cell viability at 1000 nM (%) is at or above 90%, and Satisfied whenever it is below.

Sample Smiles: COC(=O)c1ccc2c(c1)NC(=O)/C2=C(\Nc1ccc(C(=O)NOCCN2CCOCC2)c(C)c1)c1ccccc1
Study Target: MRC5 cells
Assigned Class: Satisfied

Sample Smiles: COC(=O)c1cc2c(cc1C)/C(=C(/Nc1ccc(C(=O)NOCCN3CCC(O)CC3)cc1)c1ccccc1)C(=O)N2
Study Target: MRC5 cells
Assigned Class: Not satisfied

Sample Smiles: COC(=O)c1cc2c(cc1C)/C(=C(/Nc1ccc(S(=O)(=O)NOCCN3CCN(C)CC3)cc1)c1ccccc1)C(=O)N2
Study Target: MRC5 cells
Assigned Class: Not satisfied

Sample Smiles: COC(=O)c1ccc2c(c1)NC(=O)/C2=C(\Nc1ccc(C(=O)NOCCN2CCS(=O)(=O)CC2)cc1)c1ccccc1
Study Target: MRC5 cells
Assigned Class: Satisfied

Sample Smiles: COC(=O)c1ccc2c(c1)NC(=O)/C2=C(\Nc1ccc(C(=O)NOCCN2CCNC(=O)C2)cc1)c1ccccc1
Study Target: MRC5 cells
Assigned Class: Not satisfied

Sample Smiles: COC(=O)c1cc2c(cc1C)/C(=C(/Nc1ccc(C(=O)N(C)OCCN3CC4CCC(C3)N4)cc1)c1ccccc1)C(=O)N2
Study Target: MRC5 cells
Assigned Class: Satisfied

Sample Smiles: COC(=O)c1cc2c(cc1C)/C(=C(/Nc1ccc(C(=O)N(OC)C3CCN(C)CC3)cc1)c1ccccc1)C(=O)N2
Study Target: MRC5 cells
Assigned Class: Satisfied

---

# Procedure Summary: Pharmacokinetic measurements in rats (intravenous and intra-tracheal dosing)
# Assay type: in vivo
# Experimental Parameters: rat, i.t. dosing (i.t. dose 0.1-0.5 per compound)
A collection of compounds and their measured i.t. BAV (%)
Metric: i.t. BAV (%)

Compound: COC(=O)c1ccc2c(c1)NC(=O)/C2=C(\Nc1ccc(N(C)C(=O)CN2CCN(C)CC2)cc1)c1ccccc1 [Nintedanib, reference compound]
Metric: i.t. BAV (%)
Numeric Readout: 43
--
Compound: COC(=O)c1ccc2c(c1)NC(=O)/C2=C(\Nc1ccc(C(=O)NOCCN(C)C)cc1)c1ccccc1
Metric: i.t. BAV (%)
Numeric Readout: 325
--
Compound: COC(=O)c1ccc2c(c1)NC(=O)/C2=C(\Nc1ccc(C(=O)NOCCN2CCN(C)CC2)cc1)c1ccccc1
Metric: i.t. BAV (%)
Numeric Readout: 67
--
Compound: COC(=O)c1cc2c(cc1C)/C(=C(/Nc1ccc(C(=O)NOCCN3CCN(C)CC3)cc1)c1ccccc1)C(=O)N2
Metric: i.t. BAV (%)
Numeric Readout: 115
--
Compound: COC(=O)c1cc2c(cc1C)/C(=C(/Nc1ccc(C(=O)NOCCN(C)C)c(C)c1)c1ccccc1)C(=O)N2
Metric: i.t. BAV (%)
Numeric Readout: 70
